Documented composite z-score across a set of compounds
- assay.comment: binders of probe aFGF2 on microarray, primary screen, stem cell growth factor project, biochemical, small-molecule microarray, fluorescence 635/667 (AID 1067);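 note: measures binding of biotinylated aFGF2 protein to printed compounds on slides; z-score merges feature fluorescence and signal-to-noise across triplicate slides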
- test.settings: higher = more signal
measure.name: composite z-score

{"compound": "COC(=O)[C@@]1(Cc2ccc(OC)cc2)[C@@H]2[C@@H](CC(=O)[C@H]2CC(=O)C(=O)N(C)C)CN1C(=O)c1ccccc1", "measure.name": "composite z-score", "reported.result": 0.81}
{"compound": "Cc1cccc([C@H]2C[C@H]3C(Br)=C[C@@]2(CO)C(=O)[C@]32CO2)c1", "measure.name": "composite z-score", "reported.result": -0.125}
{"compound": "COc1ccc(NN2C(C(O)c3ccccc3)C=CC3C(=O)N(C4CCCCC4)C(=O)C32)cc1 (configuration not stated)", "measure.name": "composite z-score", "reported.result": 0.0402}
{"compound": "CC(C)(C)OC(=O)CC[C@]1(C(N)=O)N=C(c2ccc(OCCCO)cc2)O[C@H]1c1ccccc1N=[N+]=[N-]", "measure.name": "composite z-score", "reported.result": -0.0088}
{"compound": "CC(C)C[C@@H]1NC(=O)[C@@H]2C[C@H](C(=O)NCCCCCCNC(=O)CS)[C@H](c3ccc(O)cc3)N2C1=O", "measure.name": "composite z-score", "reported.result": -0.0202}
{"compound": "CCOC(=O)C[C@H]1[C@H](OC(=O)c2cc3ccccc3oc2=O)[C@@H](NC(=O)c2ccc(-c3ccccc3)cc2)c2cc(OCCCO)ccc2N1C(=O)Cc1ccc(OC)cc1", "measure.name": "composite z-score", "reported.result": -0.0667}
{"compound": "COc1cccc(C)c1NC(=O)O[C@H]1[C@H](OC(=O)Nc2ccccc2)[C@@H](OC(=O)Nc2ccccc2)[C@@H](OC)O[C@@H]1CO", "measure.name": "composite z-score", "reported.result": 0.0811}

###

Documented composite Z-score across a set of compounds
- assay.comment: small-molecule microarray binders of probe aXIP, primary screen, biochemical, NeuroSMM set, 635/667 nm fluorescence (AID 1119);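 note: probe is the protein aXip251-270 applied at 1 µg/mL to compound-printed slides; binding of probe to printed compounds measured as 667 nm fluorescence plus signal to noise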
- test.settings: higher = more signal, called active from +8 up or from −8 down
Activity calls are given as the source filed them.

{"compound": "C=CCNC(=O)[C@H]1[C@@H]2C(=O)O[C@@H](c3ccccc3)[C@@H](c3ccccc3)N2[C@@H](c2ccc(OCCO)cc2)[C@]12C(=O)N(C(=O)OCCOC)c1ccc(C#CCC(C(=O)OC)C(=O)OC)cc12", "composite Z-score": "0.245 (inactive)"}
{"compound": "CC(C)[Si](C#Cc1ccccc1)(O[C@H](c1ccccc1)c1cn(Cc2ccccc2)nn1)C(C)C", "composite Z-score": "0.708 (inactive)"}
{"compound": "OCCCc1cc[n+](Cc2cc3c(cc2Br)OCO3)cc1", "composite Z-score": "-0.0354 (inactive)"}
{"compound": "C=CC[C@]1(C(=O)NCC(O)CO)N=C(c2ccc(OCCCO)cc2)O[C@H]1c1ccccc1CN=[N+]=[N-] (some centres undefined)", "composite Z-score": "0.58 (inactive)"}

###

- target.of.assay: NADPH oxidase 5 (Homo sapiens) (UniProt Q96PH1)
- Sequence (Q96PH1 whole entry, looked up): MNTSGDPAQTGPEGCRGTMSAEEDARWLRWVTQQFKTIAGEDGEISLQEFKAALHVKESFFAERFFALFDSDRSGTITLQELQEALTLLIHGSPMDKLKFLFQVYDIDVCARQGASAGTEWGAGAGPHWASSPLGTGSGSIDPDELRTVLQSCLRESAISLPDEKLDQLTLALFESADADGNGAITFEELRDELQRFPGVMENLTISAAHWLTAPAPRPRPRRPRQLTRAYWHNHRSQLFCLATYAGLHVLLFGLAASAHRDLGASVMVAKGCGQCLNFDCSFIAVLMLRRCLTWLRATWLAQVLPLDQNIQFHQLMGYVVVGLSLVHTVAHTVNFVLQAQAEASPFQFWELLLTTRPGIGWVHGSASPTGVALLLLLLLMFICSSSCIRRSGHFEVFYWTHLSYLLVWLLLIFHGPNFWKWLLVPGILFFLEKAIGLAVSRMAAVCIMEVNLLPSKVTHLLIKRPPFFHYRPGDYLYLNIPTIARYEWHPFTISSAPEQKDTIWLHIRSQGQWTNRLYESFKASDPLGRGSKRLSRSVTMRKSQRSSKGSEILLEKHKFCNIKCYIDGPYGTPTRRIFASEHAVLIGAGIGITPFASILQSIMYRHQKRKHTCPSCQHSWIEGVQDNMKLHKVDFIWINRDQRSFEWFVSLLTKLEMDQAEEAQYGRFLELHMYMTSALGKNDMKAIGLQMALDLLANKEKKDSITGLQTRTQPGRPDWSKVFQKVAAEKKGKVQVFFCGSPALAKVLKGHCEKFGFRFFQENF
- assay.comment: NOX5-dependent H2O2 signal modulators, primary screen, NOX inhibitor project, cell-based, HEK293-NOX5, Amplex Red fluorescence (AID 1161)
- test.settings: HEK293-NOX5, ionomycin, 45 min, higher = more signal
Documented z-score across a set of compounds

{"smiles.data": "COCCCNC(=O)[C@]1(Cc2ccccc2CN=[N+]=[N-])N=C(c2ccc(OCCCO)cc2)O[C@@H]1c1ccccc1N=[N+]=[N-]", "z-score": 1.42}
{"smiles.data": "C=CC[C@]1(C(N)=O)N=C(c2ccc(OCCCO)cc2)O[C@H]1c1ccccc1N=[N+]=[N-]", "z-score": 0.189}
{"smiles.data": "C=CCN1C(=O)[C@@]2(O[C@@H](CCO)[C@H]([Si](C)(C)c3ccc(OC)cc3)[C@H]2C)c2cc(N3CCCCC3=O)ccc21", "z-score": -0.607}
{"smiles.data": "CCCNC(=O)[C@@]1(Sc2ccc(C)cc2)CC(=O)N(Cc2cc(C(F)(F)F)cc(C(F)(F)F)c2)[C@@H]1c1ccc(CO)cc1", "z-score": 0.207}

###

- assay.comment: E. coli acrAB mutant growth effects, primary screen, E. coli filamentation inducers, strain DRC39, OD650, 48 h (AID 1179);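 note: screen aims at cell division blockers that make cells filament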
- test.settings: E. coli DRC39 delta-acrAB growth, higher = more signal, called active from +8 up or from −8 down
Documented z-score across a set of molecules

{"molecule": "CC[C@@H](O[Si](C#C[Si](C(C)C)(C(C)C)C(C)C)(C(C)C)C(C)C)c1cn(Cc2cccc(Cl)c2)nn1", "z-score": 0.309}
{"molecule": "CN1C2C=C(c3ccc(CO)cc3)C(C3C(=O)N(C(N)=O)C(=O)C32)C1C1CC1 (stereo not given)", "z-score": 0.213}
{"molecule": "COCCOC(=O)N1C(=O)[C@@]2(c3cc(C#CCCO)ccc31)[C@H](C(=O)N1CCN(c3ncccn3)CC1)[C@H]1C(=O)O[C@H](c3ccccc3)[C@H](c3ccccc3)N1[C@@H]2c1ccc(OCCO)cc1", "z-score": -0.548}
{"molecule": "C=CCNC(=O)[C@@H]1[C@H]2C(=O)O[C@H](c3ccccc3)[C@H](c3ccccc3)N2[C@H](c2ccc(OCCO)cc2)[C@@]12C(=O)Nc1ccc(C#CCNC(N)=O)cc12", "z-score": -0.568}
{"molecule": "CO[C@H]1O[C@H](CO)[C@@H](OC(=O)CCc2ccccc2)[C@@H]2OC(=O)[C@@H](Cc3ccc4ccccc4c3)C/C=C/C[C@H](Cc3ccc4ccccc4c3)C(=O)O[C@@H]12", "z-score": 0.9}
{"molecule": "C=C[C@@H](CO)NS(=O)(=O)c1ccc(Br)cc1", "z-score": 1.16}
{"molecule": "COc1ccc([Si](C)(C)[C@H]2[C@H](CC(=O)N3CCC[C@H]3CO)O[C@@]3(C(=O)N(Cc4cccc(N5CCCCC5=O)c4)c4ccccc43)[C@@H]2C)cc1", "z-score": 0.965}
{"molecule": "C=CCNC(=O)[C@H]1[C@@H]2C(=O)O[C@@H](c3ccccc3)[C@@H](c3ccccc3)N2[C@@H](c2ccc(O)cc2)[C@]12C(=O)Nc1ccccc12", "z-score": 0.975}
{"molecule": "COc1ccc(NN2C(C(O)c3ccc(F)cc3)C=CC3C(=O)N(C4CCCCC4)C(=O)C32)cc1 (stereo not given)", "z-score": -0.0595}
{"molecule": "COc1ccc(CCNC(=O)[C@@]2(c3ccc([N+](=O)[O-])cc3)CC(=O)N(C3CCCCC3)[C@@H]2c2ccc(CO)cc2I)cc1", "z-score": -0.0406}
{"molecule": "COCCCNC(=O)[C@@]1(c2ccc([N+](=O)[O-])cc2)CC(=O)N(C2CCCCC2)[C@@H]1c1ccc(CO)cc1I", "z-score": -0.279}
{"molecule": "CCCCCCc1nc(-c2ccc(OC)nc2)c(C)c2c1[Si](C(C)C)(C(C)C)OC2", "z-score": -0.0026}
{"molecule": "O=C1N(Cc2ccccc2)Cc2ccccc2C[C@@]12COC(c1ccc(OCCCO)cc1)=N2", "z-score": 0.0613}
{"molecule": "Cc1ccc(S[C@]2(C(=O)NC3CC3)CC(=O)N(C3Cc4ccccc4C3)[C@@H]2c2ccc(CO)cc2I)cc1", "z-score": -0.266}
{"molecule": "CS(=O)(=O)CCOC(=O)C1=CC(CCCO)=CC(C2CC2)N(Cc2sc3ccccc3c2Cl)C=C1C(=O)OCCS(C)(=O)=O (stereo not given)", "z-score": 0.156}
{"molecule": "C=C(COC)/C(=C/C[C@@H](OC(=O)c1ccncc1)c1ccccc1OCCO)c1cnc2ccccc2c1", "z-score": 0.359}
{"molecule": "C[C@]1(C(=O)NCC(F)(F)F)c2ccccc2C(=O)N(Cc2cc(C(F)(F)F)cc(C(F)(F)F)c2)[C@H]1c1ccc(CO)cc1", "z-score": 0.827}
{"molecule": "O=C1OCC=C[C@H]2OC34C=CCN(Cn5nnc6ccccc65)C(=O)[C@H]3N(CCO)C(=O)[C@@H]4[C@@H]12 (stereo not given in full)", "z-score": -0.0669}
{"molecule": "C=C(C(=O)CC[C@@H](OC(=O)c1ccccc1-c1ccccc1C(=O)O)c1cccc(OCCO)c1)C(C)C", "z-score": 0.332}
{"molecule": "COCCCNC(=O)[C@@]1(Cc2ccccc2I)c2ccccc2C(=O)N(Cc2ccccc2C(F)(F)F)[C@H]1c1ccc(CO)cc1", "z-score": 0.324}
{"molecule": "CC(C)(C)OC(=O)N1[C@@H](C=C(Br)Br)COC1(C)C", "z-score": 0.6}
{"molecule": "C=CCC(OC(C)=O)[C@@H]1[C@@H](N(Cc2ccc(-c3ccccc3)cc2)C(=O)Cc2ccc(OC)cc2)c2cc(OCCCO)ccc2N1C(=O)Cc1ccc(OC)cc1 (stereo not given in full)", "z-score": -0.403}
{"molecule": "COC(=O)[C@@]1(Cc2ccc(F)cc2)[C@H]2c3cc(C(=O)N4CCCC4)n(C[C@H](O)CO)c3C[C@H]2CN1C(=O)c1ccccc1", "z-score": -0.0414}
{"molecule": "CC(C)c1ccc(NN2C(C(O)c3ccccc3)C=CC3C(=O)N(c4ccccc4)C(=O)C32)cc1 (stereo not given)", "z-score": 0.289}
{"molecule": "COCCCNC(=O)[C@]1(Cc2ccccc2CN=[N+]=[N-])N=C(c2ccc(OCCCO)cc2)O[C@@H]1c1ccccc1N=[N+]=[N-]", "z-score": 0.692}
{"molecule": "CC1C2C(CCCO)=CC(C3C(=O)N(C)C(=O)C23)N1Cc1cccc(OC(F)(F)F)c1 (stereo not given)", "z-score": -0.0843}
{"molecule": "CC[C@@H]1C=C(C(=O)O)[C@H](c2cccc(Cl)c2)N1S(=O)(=O)c1ccc(C)cc1", "z-score": -0.55}
{"molecule": "O=C(CS)NCCCCCCNC(=O)[C@H]1C[C@H]2C(=O)NCC(=O)N2[C@H]1c1cccc(OCCO)c1", "z-score": -0.814}
{"molecule": "CC(C)c1ccc(NN2C(C(O)C3=C[C@H]4C[C@@H](C3)C4(C)C)C=CC3C(=O)N(c4ccccc4)C(=O)C32)cc1 (stereo not given in full)", "z-score": -0.629}
{"molecule": "CC(CO)N1C(=O)[C@@H]2[C@H]3C(=O)OCC=C[C@H]3OC23C=CCN(c2ccc4ccccc4c2)C(=O)[C@@H]13 (stereo not given in full)", "z-score": -0.534}
